# measurement_description: Solubility at pH 6.8
# Assay type: physicochemical
# stated_conditions: pH 6.8, aqueous buffer, thermodynamic from solid; read-out: solubility
test_readout: solubility

- smiles_code: "CNC(=O)c1cc(-c2ccc3ncc4c(c3c2)n(-c2cn(C)nc2C)c(=O)n4C)cnc1OC"
  test_readout: "solubility"
  measured_result: "6 µg/mL"
- smiles_code: "COCCn1nc(C)c(-n2c(=O)n(C)c3cnc4ccc(-c5cncc(NC(C)C)c5)cc4c32)c1C"
  test_readout: "solubility"
  measured_result: "479 µg/mL"
- smiles_code: "CCOCc1ncc(-c2ccc3ncc4c(c3c2)n(-c2cn(C)nc2C)c(=O)n4C)cc1OC"
  test_readout: "solubility"
  measured_result: "> 459 µg/mL"
- smiles_code: "CCNc1ncc(-c2ccc3ncc4c(c3c2)n(-c2cn(C)nc2C)c(=O)n4C)cc1COCC"
  test_readout: "solubility"
  measured_result: "4 µg/mL"
- smiles_code: "Cc1nn(CC(=O)N2CCC2)cc1-n1c(=O)n(C)c2cnc3ccc(-c4cncc(OC(C)C)c4)cc3c21"
  test_readout: "solubility"
  measured_result: "> 512 µg/mL"
- smiles_code: "[2H]C([2H])([2H])OCc1ncc(-c2ccc3ncc4c(c3c2)n(-c2cn(C)nc2Cl)c(=O)n4C)cc1OC"
  test_readout: "solubility"
  measured_result: "8 µg/mL"
- smiles_code: "CNc1cc(-c2ccc3ncc4c(c3c2)n(-c2cn(C(C)C)nc2C)c(=O)n4C)cnc1CO"
  test_readout: "solubility"
  measured_result: "> 458 µg/mL"

* * *

# tgt: PI3K beta (Homo sapiens, UniProt P42338)
# Construct: for the full-length p110-b subunit are generated and fused by overlapping PCR; p85(iSH2) fusion partner (see partner chain) (N); His tag (C); Tn5 (Trichoplusia ni) or TiniPro insect cells
# Sequence (P42338 with tags, fused parts or gaps limits assumed): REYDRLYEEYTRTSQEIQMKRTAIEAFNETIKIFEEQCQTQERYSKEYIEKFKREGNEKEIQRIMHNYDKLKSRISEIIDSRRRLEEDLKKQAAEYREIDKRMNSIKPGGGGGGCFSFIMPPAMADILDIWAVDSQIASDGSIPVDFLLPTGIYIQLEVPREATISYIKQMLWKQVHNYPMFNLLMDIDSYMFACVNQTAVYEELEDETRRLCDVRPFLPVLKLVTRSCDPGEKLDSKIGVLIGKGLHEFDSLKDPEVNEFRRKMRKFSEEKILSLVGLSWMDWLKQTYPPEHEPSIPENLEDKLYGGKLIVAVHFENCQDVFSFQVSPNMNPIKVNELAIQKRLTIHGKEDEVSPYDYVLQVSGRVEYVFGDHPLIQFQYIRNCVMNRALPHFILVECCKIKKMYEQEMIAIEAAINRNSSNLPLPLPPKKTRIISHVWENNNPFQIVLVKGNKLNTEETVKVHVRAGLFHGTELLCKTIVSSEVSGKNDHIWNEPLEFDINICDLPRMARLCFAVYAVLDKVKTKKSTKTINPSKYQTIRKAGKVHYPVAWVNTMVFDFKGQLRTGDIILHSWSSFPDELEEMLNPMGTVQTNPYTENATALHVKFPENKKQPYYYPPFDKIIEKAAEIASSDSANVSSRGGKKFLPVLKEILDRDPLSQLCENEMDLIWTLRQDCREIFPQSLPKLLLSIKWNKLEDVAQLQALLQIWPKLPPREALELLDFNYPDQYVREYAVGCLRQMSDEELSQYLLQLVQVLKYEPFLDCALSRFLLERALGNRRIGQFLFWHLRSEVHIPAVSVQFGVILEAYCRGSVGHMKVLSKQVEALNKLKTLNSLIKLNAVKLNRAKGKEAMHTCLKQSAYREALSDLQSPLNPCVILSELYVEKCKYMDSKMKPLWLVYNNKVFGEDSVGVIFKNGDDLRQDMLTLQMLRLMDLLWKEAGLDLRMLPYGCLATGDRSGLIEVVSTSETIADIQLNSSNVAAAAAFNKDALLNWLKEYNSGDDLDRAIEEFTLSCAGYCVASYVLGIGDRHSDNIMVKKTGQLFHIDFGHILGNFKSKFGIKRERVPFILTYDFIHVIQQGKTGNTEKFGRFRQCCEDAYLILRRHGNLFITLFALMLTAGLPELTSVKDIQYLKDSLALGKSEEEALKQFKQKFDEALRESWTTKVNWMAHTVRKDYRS
# measurement_description: PI3K beta kinase assay (Kinase-Glo luminescence)

- molecule: "Cc1nn(C)cc1-n1c(=O)n(C)c2cnc3ccc(-c4cnc(F)c(N)c4)cc3c21 [Example 149.2]"
  tgt: "PI3K beta (Homo sapiens, UniProt P42338)"
  unit_tag: "nM"
  IC50: 12
- molecule: "Cc1ncc(-c2ccc3ncc4c(c3c2)n(-c2cn(C)nc2C)c(=O)n4C)cc1N(C)S(C)(=O)=O [Example 75]"
  tgt: "PI3K beta (Homo sapiens, UniProt P42338)"
  unit_tag: "nM"
  IC50: 37
- molecule: "Cc1nn(C(C)C)cc1-n1c(=O)n(C)c2cnc3ccc(-c4cnc5c(c4)COC(=O)N5C)cc3c21 [Example 170]"
  tgt: "PI3K beta (Homo sapiens, UniProt P42338)"
  unit_tag: "nM"
  IC50: 395
- molecule: "CCNc1cc(-c2ccc3ncc4c(c3c2)n(-c2cn(C(C)C)nc2C)c(=O)n4C)cnc1CO [Example 155.3]"
  tgt: "PI3K beta (Homo sapiens, UniProt P42338)"
  unit_tag: "nM"
  IC50: 46

* * *

# Tested on: PKB Ser473 phosphorylation in Rat1-myr-HA-p110 alpha cells
# measurement_description: Reverse protein array assay, PKB Ser473 phosphorylation in Rat1-myr-p110 alpha cells
# Format: cell-based
# stated_conditions: 0.5 h, pAkt Ser473, 30 minutes compound incubation, read-out: p-PKB IC50
pIC50: −log10 of the molar value.

- smiles_code: "CNc1ccc(-c2ccc3ncc4c(c3c2)n(-c2cn(CC(=O)N(C)C)nc2C)c(=O)n4C)cn1"
  pIC50: 6.97
- smiles_code: "CCOc1cncc(-c2ccc3ncc4c(c3c2)n(-c2cn(C)nc2C)c(=O)n4C)c1"
  pIC50: 7.80
- smiles_code: "Cc1nn(C)c(C)c1-n1c(=O)n(C)c2cnc3ccc(-c4cnc(N)c(Cl)c4)cc3c21"
  pIC50: 7.20
- smiles_code: "Cc1nn(C)cc1-n1c(=O)n(C)c2cnc3ccc(-c4cncc(OC(CF)CF)c4)cc3c21"
  pIC50: 7.82
- smiles_code: "CCn1cc(-n2c(=O)n(C)c3cnc4ccc(-c5cnc(OC)nc5OC)cc4c32)c(C)n1"
  pIC50: 8.00
- smiles_code: "CNC(=O)c1ccc(-c2ccc3ncc4c(c3c2)n(-c2cn(C)nc2C)c(=O)n4C)cc1"
  pIC50: 7.85
- smiles_code: "CCN(C)C(=O)Cn1cc(-n2c(=O)n(C)c3cnc4ccc(-c5cnc(N6CCCC6)nc5)cc4c32)c(C)n1"
  pIC50: 7.08
- smiles_code: "Cc1nn(C)cc1-n1c(=O)n(C)c2cnc3ccc(-c4ccc(N5CCNCC5)nc4)cc3c21"
  pIC50: 6.85
- smiles_code: "CNc1cc(-c2ccc3ncc4c(c3c2)n(-c2cn(C(C)C)nc2C)c(=O)n4C)cnc1CO"
  pIC50: 8.15

* * *

# tgt: PI3K alpha (Homo sapiens)
# Construct: p85(iSH2) fusion partner (see partner chain) (N); His tag (C); Tn5 (Trichoplusia ni) or TiniPro insect cells
# measurement_description: PI3K alpha kinase assay (Kinase-Glo luminescence)
pIC50: −log10 of the molar value.
Parameter: pIC50. Scope: all listed entries.

- smiles_code: "Cc1nn(C)cc1-n1c(=O)n(C)c2cnc3ccc(-c4ccnc(N(C)C(C)C)c4)cc3c21"
  pIC50: 6.11
- smiles_code: "CCNC(=O)c1cc(-c2ccc3ncc4c(c3c2)n(-c2cn(C(C)C)nc2C)c(=O)n4C)cnc1N"
  pIC50: 7.15
- smiles_code: "CNc1ccc(-c2ccc3ncc4c(c3c2)n(-c2cn(C)nc2C)c(=O)n4C)cn1"
  pIC50: 7.96
- smiles_code: "Cc1cc(-n2c(=O)n(C)c3cnc4ccc(-c5ccc(N(C)C)nc5)cc4c32)n(C)n1"
  pIC50: 7.32
- smiles_code: "CCNc1cc(-c2ccc3ncc4c(c3c2)n(-c2c(C)nn(C)c2C)c(=O)n4C)cnc1CO"
  pIC50: 6.90
- smiles_code: "Cc1nn(C(C)C)cc1-n1c(=O)n(C)c2cnc3ccc(-c4cnc(N)c(F)c4)cc3c21"
  pIC50: 7.60
- smiles_code: "Cc1nn(C)cc1-n1c(=O)n(C)c2cnc3ccc(-c4cnc5c(c4)nc(N(C)C)n5C)cc3c21"
  pIC50: 6.43
- smiles_code: "Cc1nn(C)cc1-n1c(=O)n(C)c2cnc3ccc(-c4cnc5ccccc5c4)cc3c21"
  pIC50: 8.10

* * *

# tgt: PI3K alpha (Homo sapiens, UniProt P42336)
# Construct: p85(iSH2) fusion partner (see partner chain) (N); His tag (C); Tn5 (Trichoplusia ni) or TiniPro insect cells
# Sequence (P42336 with tags, fused parts or gaps limits assumed): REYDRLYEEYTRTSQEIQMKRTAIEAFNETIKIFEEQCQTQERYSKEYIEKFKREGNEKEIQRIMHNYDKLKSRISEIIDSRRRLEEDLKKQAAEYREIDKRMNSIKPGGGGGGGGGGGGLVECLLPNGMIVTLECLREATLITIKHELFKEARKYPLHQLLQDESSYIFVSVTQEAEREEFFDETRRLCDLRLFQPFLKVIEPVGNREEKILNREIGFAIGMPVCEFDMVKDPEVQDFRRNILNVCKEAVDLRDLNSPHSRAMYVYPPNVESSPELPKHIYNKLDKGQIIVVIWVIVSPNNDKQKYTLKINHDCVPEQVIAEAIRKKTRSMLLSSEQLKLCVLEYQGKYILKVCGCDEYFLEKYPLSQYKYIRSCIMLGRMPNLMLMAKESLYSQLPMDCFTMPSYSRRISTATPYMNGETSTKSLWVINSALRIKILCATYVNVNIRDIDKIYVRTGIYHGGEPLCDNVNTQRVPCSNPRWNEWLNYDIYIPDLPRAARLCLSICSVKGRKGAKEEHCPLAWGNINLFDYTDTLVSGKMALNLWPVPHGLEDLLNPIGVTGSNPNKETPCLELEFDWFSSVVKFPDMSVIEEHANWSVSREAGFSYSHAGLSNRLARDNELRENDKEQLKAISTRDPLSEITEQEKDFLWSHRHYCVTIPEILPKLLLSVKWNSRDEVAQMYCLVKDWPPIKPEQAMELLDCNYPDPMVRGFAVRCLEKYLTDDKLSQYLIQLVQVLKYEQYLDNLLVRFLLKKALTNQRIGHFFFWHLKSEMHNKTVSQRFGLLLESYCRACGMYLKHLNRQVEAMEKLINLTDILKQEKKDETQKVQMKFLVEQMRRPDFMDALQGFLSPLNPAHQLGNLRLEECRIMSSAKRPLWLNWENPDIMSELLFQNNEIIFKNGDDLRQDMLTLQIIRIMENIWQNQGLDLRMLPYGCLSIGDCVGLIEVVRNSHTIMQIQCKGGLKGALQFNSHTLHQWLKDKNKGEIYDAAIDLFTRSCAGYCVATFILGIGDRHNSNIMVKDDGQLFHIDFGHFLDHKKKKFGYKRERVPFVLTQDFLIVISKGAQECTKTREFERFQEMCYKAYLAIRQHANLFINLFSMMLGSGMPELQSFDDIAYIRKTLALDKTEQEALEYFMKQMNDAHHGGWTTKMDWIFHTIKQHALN
# measurement_description: PI3K alpha kinase assay (Kinase-Glo luminescence)
pIC50: −log10 of the molar value.

- smiles_code: "CCNc1ncc(-c2ccc3ncc4c(c3c2)n(-c2c(C)nn(C)c2C)c(=O)n4C)cc1COC"
  pIC50: 6.73
- smiles_code: "CNC(=O)c1ccc(-c2ccc3ncc4c(c3c2)n(-c2cn(C)nc2Cl)c(=O)n4C)cc1"
  pIC50: 8.10
- smiles_code: "Cc1nn(C(C)C)cc1-n1c(=O)n(C)c2cnc3ccc(-c4cnc5c(c4)COC(=O)N5C)cc3c21"
  pIC50: 7.26
- smiles_code: "Cc1nn(CC(=O)N2CCN(C)CC2)cc1-n1c(=O)n(C)c2cnc3ccc(-c4ccccc4)cc3c21"
  pIC50: 6.27
- smiles_code: "CCN(C)c1ccc(-c2ccc3ncc4c(c3c2)n(-c2cn(C)nc2C)c(=O)n4C)cn1"
  pIC50: 7.47
- smiles_code: "CCOc1ccc(-c2ccc3ncc4c(c3c2)n(-c2c(C)nn(CCOC)c2C)c(=O)n4C)cn1"
  pIC50: 6.68
- smiles_code: "Cc1nn(C)cc1-n1c(=O)n(C)c2cnc3ccc(-c4cnc5ccn(C)c5c4)cc3c21"
  pIC50: 7.92
- smiles_code: "Cc1nn(C)cc1-n1c(=O)n(C)c2cnc3ccc(-c4ccc(OCC5CC5)nc4)cc3c21"
  pIC50: 7.15
- smiles_code: "CCOCc1cc(-c2ccc3ncc4c(c3c2)n(-c2cn(C)nc2Cl)c(=O)n4C)cnc1N"
  pIC50: 8.05
- smiles_code: "Cc1nn(C)c(C)c1-n1c(=O)n(C)c2cnc3ccc(-c4cnc(N)c(C(F)(F)F)c4)cc3c21"
  pIC50: 7.23
- smiles_code: "CCN(C)C(=O)Cn1cc(-n2c(=O)n(C)c3cnc4ccc(-c5cnc(N6CCCC6)nc5)cc4c32)c(C)n1"
  pIC50: 6.77
- smiles_code: "CNc1ncc(-c2ccc3ncc4c(c3c2)n(-c2cn(C)nc2C)c(=O)n4C)cc1COC"
  pIC50: 8.00
- smiles_code: "COc1ncc(-c2ccc3ncc4c(c3c2)n(-c2cc(C)nn2C)c(=O)n4C)c(OC)n1"
  pIC50: 7.19
- smiles_code: "Cc1nn(C)cc1-n1c(=O)n(C)c2cnc3ccc(-c4cnc(CO)c(Cl)c4)cc3c21"
  pIC50: 7.54
- smiles_code: "CNc1cc(-c2ccc3ncc4c(c3c2)n(-c2cn(C(C)C)nc2C)c(=O)n4C)cnc1CO"
  pIC50: 7.36
